The reported measurements were obtained from paper PMC9597486.

- SUBJECT_OF_TEST: AHA2 central loop (recombinant His-AHA2 central loop) (Arabidopsis thaliana)
- Construct: cytosolic central loop domain only, His-tagged recombinant, fluorescently labelled with NanoTemper RED protein labelling kit
- Sequence (P19456 292-643 limits assumed): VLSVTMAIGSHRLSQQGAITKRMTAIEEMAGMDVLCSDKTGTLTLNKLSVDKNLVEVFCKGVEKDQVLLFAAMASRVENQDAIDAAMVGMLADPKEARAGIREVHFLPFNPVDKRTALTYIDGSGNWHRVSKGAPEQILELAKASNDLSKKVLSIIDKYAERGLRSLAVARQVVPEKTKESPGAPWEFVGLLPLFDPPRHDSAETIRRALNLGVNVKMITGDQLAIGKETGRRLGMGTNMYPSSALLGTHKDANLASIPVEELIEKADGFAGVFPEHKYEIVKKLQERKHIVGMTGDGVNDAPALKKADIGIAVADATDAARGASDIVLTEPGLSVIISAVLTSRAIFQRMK
- MEASUREMENT_DESCRIPTION: microscale thermophoresis
pKd: −log10 of the molar value.
READOUT_TYPE: pKd

(P) O=C1NC(=S)S/C1=C\c1ccco1
(Q) O=C1NC(=S)S/C1=C\c1ccc[nH]1
Enquiry: Of the two listed items, which has the higher pKd? First: P Second: Q Record your answer as the label of the chosen record.
Return: Q
